# targetEntity: bovine trypsin (Bos taurus)
# Sequence (P00760 24-246): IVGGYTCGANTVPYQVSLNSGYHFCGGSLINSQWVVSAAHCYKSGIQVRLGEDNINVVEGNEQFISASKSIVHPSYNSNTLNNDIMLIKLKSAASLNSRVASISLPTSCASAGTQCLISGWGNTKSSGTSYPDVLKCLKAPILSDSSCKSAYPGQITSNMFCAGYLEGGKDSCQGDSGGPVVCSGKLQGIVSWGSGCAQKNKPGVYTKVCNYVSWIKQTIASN
# assayName: Proteinase inhibition assay, bovine trypsin
# Assay type: biochemical
# conditions: Table 2; pH 7.4, 0.05M Tris, 0.15M NaCl, 0.1% PEG-8000, room temperature; read-out: Ki (nM) Trypsin
observationType: Ki (nM)
Number in nM, nothing else.

Prompt line: Returns the measured Ki for the input compound. Input: CNC(=O)C(=O)C(NC(=O)C1CCCN1C(=O)CCC1CCCCC1)C1CCC(N)CC1 (stereo not drawn)
Response line: 4000

Prompt line: Tell me the measured Ki of CNC(=O)C(=O)C(NC(=O)C1CCCN1C(=O)C(CC1CCCCC1)NC)C1CCC(N)CC1 (stereo not drawn) , please.
Response line: 310

Prompt line: Item CNC(=O)C(=O)C(NC(=O)C1CCCN1C(=O)CC(c1ccccc1)c1ccccc1)C1CCC(N)CC1 (mixture of isomers) has what recorded Ki?
Response line: 2000
